target: T1, human folate receptor 1 (human, UniProt P15328 25-234); experiment: apparent affinity, flow cytometry on FOLR1-expressing cells ('as described above'; cell line not named in Example 19, SKOV3 in Example 13)
T1 construct: also called FOLR1; Folate Receptor-alpha
T1 sequence (P15328 25-234 limits assumed): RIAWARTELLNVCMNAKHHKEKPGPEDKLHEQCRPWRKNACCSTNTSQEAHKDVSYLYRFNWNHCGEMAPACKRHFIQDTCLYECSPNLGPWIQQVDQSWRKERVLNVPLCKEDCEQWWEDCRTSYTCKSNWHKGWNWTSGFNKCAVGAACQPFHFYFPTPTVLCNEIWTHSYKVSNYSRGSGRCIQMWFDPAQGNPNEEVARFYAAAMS
Exercise: for every item that follows, state its recorded Kd.
Answers are plain numbers, in nM.

Solved entries (count: 3):
Binder	Numeric value
huMov19 (antibody, V domains shown, Resurfaced humanized Mov19, full IgG1/kappa; also called humanized Mov19) VH: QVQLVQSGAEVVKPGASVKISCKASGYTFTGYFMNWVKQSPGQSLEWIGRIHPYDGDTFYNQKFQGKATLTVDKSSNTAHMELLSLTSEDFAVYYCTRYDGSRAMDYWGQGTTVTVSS VL: DIVLTQSPLSLAVSLGQPAIISCKASQSVSFAGTSLMHWYHQKPGQQPRLLIYRASNLEAGVPDRFSGSGSKTDFTLNISPVEAEDAATYYCQQSREYPYTFGGGTKLEIKR	0.06
huFR1-57 (antibody, human IgG1, kappa, V domains shown) VH: EVQLVESGGGLVQPGGSRRLSCAASGFTFSSFGMHWVRQAPGKGLEWVAYISSGSSTISYADSVKGRFTISRDNSKKTLLLQMTSLRAEDTAMYYCAREAYGSSMEYWGQGTLVTVSS VL: EIVLTQSPATLSVTPGDRVSLSCRASQNINNNLHWYQQKPGQSPRLLIKYVSQSVSGIPDRFSGSGSGTDFTLSISSVEPEDFGMYFCQQSNSWPHYTFGQGTKLEIKR	0.14
huFR1-65 (antibody, human IgG1, kappa, V domains shown) VH: QVQLVQSGAEVAKPGASVKMSCKASGYTFTSYTMHWVKQRPGQGLAWIGYINPISGYTNYNQKFQGKATLTADKSSSTAYMQLNSLTSEDSAVYYCASGGAYGRKPMDYWGQGTSVTVSS VL: EIVMTQSPATMSTSPGDRVSVTCKASQNVGPNVAWYQQKPGQSPRALIYSASYRYSGVPARFTGSGSGTDFTLTISNMQSEDLAEYFCQQYNSYPYTFGQGTKLEIKR	0.15

// query State the recorded Kd for this entry: huFR1-49 (antibody, human IgG1, kappa, V domains shown) VH: QVQLQQSGAVVAKPGASVKMSCKASGYTFTNYWMYWIKQRPGQGLELIGAIYPGNSDTTYNQKFQGKATLTAVTSANTVYMEVSSLTSEDSAVYYCTKRHDYGAMDYWGQGTSVTVSS VL: DIQMTQSPSSLSVSVGERVTITCRASENIYTNLAWYQQKPGKSPKLLVYTASNLADGVPSRFSGSGSGTDYSLKINSLQPEDFGTYYCQHFWVSPYTFGQGTKLEIKR
// result 0.08
